Recorded values, source paper PMC9937993.

system.tested: MtdL (Marinactinospora thermotolerans, UniProt G8HX37, N42D)
Sequence (G8HX37 entry or part of it N42D): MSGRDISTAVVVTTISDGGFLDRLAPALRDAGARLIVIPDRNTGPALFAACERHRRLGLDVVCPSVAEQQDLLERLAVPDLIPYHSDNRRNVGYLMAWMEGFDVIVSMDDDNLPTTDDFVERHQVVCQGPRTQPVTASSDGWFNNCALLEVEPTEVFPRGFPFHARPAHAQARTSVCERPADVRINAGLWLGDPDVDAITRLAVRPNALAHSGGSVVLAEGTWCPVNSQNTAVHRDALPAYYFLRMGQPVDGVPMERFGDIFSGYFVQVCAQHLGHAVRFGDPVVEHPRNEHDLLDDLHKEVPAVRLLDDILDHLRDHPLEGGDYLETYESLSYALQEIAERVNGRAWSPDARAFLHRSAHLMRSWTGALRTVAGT
test.method.notes: ITC
pKd: −log10 of the molar value.
measurement.kind: pKd

GET /values?readout=pKd&system=MtdL (Marinactinospora thermotolerans, UniProt G8HX37, N42D)&item= Nc1nc2c(ncn2[C@@H]2O[C@H](COP(=O)(O)OP(=O)(O)O)[C@@H](O)[C@H]2O)c(=O)[nH]1
~5.91
